Target: AXL (human) (UniProt P30530)
Sequence (P30530 whole entry, looked up): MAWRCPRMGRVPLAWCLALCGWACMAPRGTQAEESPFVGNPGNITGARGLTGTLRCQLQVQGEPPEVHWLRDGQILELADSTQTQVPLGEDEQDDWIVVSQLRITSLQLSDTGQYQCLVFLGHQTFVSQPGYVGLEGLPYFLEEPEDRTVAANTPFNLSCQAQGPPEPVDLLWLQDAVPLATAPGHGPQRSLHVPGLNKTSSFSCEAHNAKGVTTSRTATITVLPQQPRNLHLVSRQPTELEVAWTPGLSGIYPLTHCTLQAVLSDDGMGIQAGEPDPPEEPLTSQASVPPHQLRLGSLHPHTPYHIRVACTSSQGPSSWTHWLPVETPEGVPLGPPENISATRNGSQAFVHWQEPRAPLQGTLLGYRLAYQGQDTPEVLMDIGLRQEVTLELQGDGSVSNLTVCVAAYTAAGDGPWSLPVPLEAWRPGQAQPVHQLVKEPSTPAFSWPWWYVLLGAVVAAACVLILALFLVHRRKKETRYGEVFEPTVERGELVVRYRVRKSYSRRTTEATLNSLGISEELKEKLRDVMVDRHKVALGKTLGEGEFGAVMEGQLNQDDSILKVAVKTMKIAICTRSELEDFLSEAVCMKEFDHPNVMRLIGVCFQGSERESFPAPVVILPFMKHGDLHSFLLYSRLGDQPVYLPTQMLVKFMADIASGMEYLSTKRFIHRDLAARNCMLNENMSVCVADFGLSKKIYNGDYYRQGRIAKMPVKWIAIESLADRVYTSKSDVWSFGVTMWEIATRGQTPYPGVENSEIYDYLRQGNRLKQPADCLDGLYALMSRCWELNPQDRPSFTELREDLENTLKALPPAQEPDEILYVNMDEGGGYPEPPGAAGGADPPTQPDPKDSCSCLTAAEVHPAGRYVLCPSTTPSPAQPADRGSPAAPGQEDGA
Assay: KINOMEscan competition binding
Settings: compound 10.0 µM
kinase still bound, per cent of control values by entry
Reply with just the number (in %).

| Structure smiles | Assay target | Recorded metric | Measurement unit | Value measured |
| --- | --- | --- | --- | --- |
| COc1cc(N2CCN(C)CC2)ccc1Nc1ncc2c(n1)N(C)c1sccc1C(=O)N2C | AXL (human) (UniProt P30530) | kinase still bound, per cent of control | % | 75 |
| COc1cc(N2CCC(O)CC2)ccc1Nc1ncc2c(n1)N1CCc3cccc(c31)C(=O)N2C | AXL (human) (UniProt P30530) | kinase still bound, per cent of control | % | 100 |
| CN1C(=O)[C@H]2CCC[C@H]2N(C2CCCC2)c2nc(Nc3ccc(C(N)=O)cc3)ncc21 | AXL (human) (UniProt P30530) | kinase still bound, per cent of control | % | 13 |

As a next step, examine the molecule that follows.
I am curious: what kinase still bound, per cent of control value has been reported for CN1C(=O)c2ccccc2N(C)c2nc(Nc3ccc(N4CCC(O)CC4)cc3)ncc21 ? 88

---

Molecular target: MAPK4 (human) (UniProt P31152)
Sequence (P31152 whole entry, looked up): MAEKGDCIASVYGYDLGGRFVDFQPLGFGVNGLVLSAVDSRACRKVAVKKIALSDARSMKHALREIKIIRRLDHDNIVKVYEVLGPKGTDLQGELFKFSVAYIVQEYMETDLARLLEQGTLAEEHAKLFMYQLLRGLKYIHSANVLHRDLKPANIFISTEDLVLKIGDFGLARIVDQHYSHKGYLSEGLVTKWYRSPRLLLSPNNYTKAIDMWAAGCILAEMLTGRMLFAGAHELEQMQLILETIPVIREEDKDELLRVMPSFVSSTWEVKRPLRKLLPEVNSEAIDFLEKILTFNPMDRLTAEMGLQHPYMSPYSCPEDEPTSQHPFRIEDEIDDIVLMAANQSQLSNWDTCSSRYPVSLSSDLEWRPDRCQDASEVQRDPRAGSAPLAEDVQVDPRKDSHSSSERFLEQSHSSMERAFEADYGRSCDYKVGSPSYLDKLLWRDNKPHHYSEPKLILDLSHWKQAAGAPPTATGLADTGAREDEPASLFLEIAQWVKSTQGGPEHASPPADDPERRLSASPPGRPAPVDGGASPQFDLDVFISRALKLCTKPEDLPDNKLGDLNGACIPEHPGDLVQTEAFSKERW
Assay: KINOMEscan competition binding
Details: compound 10.0 µM
Below is a list of entries, each paired with its recorded kinase still bound, per cent of control value.
Your answer is read as %, so omit the unit and give the number.

| Structure smiles | Value measured |
| --- | --- |
| COc1cc(N2CCN(C)CC2)ccc1Nc1ncc2c(n1)N(C)c1ccccc1N(C)C2=O | 100 |
| O=C1NC(=O)/C(=C/c2c[nH]c(=O)c(-c3ccc(N4CCNCC4)nc3)c2)S1 | 100 |
| COc1cc(N2CCC(O)CC2)ccc1Nc1ncc2c(n1)N1CCc3cccc(c31)C(=O)N2C | 100 |
| COc1cc(N2CCN(C)CC2)ccc1Nc1ncc2c(n1)N(C)c1sccc1C(=O)N2C | 66 |

Name the reported kinase still bound, per cent of control value associated with the compound CN1C(=O)c2ccccc2N(C)c2nc(NS(=O)(=O)c3ccc(N)cc3)ncc21 88

Give the measured kinase still bound, per cent of control of COc1cc(N2CCN(C)CC2)ccc1Nc1ncc2c(n1)Nc1ccccc1NC2=O . 99

May I ask what kinase still bound, per cent of control has been recorded for CN1CCN(c2ccc(C(=O)Nc3ncc4c(n3)N(C)c3ccccc3C(=O)N4C)cc2)CC1 ? 100

// lookup kinase still bound, per cent of control for CN1C(=O)c2ccccc2N(C)c2nc(Nc3ccc(N4CCC(O)CC4)cc3)ncc21 100

---

Target: MYO3A (human)
Test: KINOMEscan competition binding
Conditions: compound 10.0 µM
// returns NOT MET unless kinase still bound, per cent of control is strictly below 60%, in which case MET

| Structure smiles | Class name |
| --- | --- |
| COc1cc(N2CCN(C)CC2)ccc1Nc1ncc2c(n1)N(C)c1ccccc1N(C)C2=O | NOT MET |

Below 60% on kinase still bound, per cent of control? Entry COc1cc(N2CCC(O)CC2)ccc1Nc1ncc2c(n1)N1CCc3cccc(c31)C(=O)N2C MET

Would you kindly verify if kinase still bound, per cent of control of CN1CCN(c2ccc(C(=O)Nc3ncc4c(n3)N(C)c3ccccc3C(=O)N4C)cc2)CC1 is strictly less than 60%? NOT MET

---

Catalogue of kinase still bound, per cent of control readings, one per entry.
Molecular target: MAPK11 (human)
Test: KINOMEscan competition binding
Conditions: compound 10.0 µM
Provide only the numeric value, understood in %.

Below, each entry is followed by its recorded kinase still bound, per cent of control result.
| Structure smiles | Measurement unit | kinase still bound, per cent of control |
| --- | --- | --- |
| CN1C(=O)c2ccccc2N(C)c2nc(NS(=O)(=O)c3ccc(N)cc3)ncc21 | % | 100 |
| COc1cc(N2CCN(C)CC2)ccc1Nc1ncc2c(n1)N(C)c1sccc1C(=O)N2C | % | 85 |
| COc1cc(N2CCN(C)CC2)ccc1Nc1ncc2c(n1)Nc1ccccc1NC2=O | % | 100 |
| CN1CCN(c2ccc(C(=O)Nc3ncc4c(n3)N(C)c3ccccc3C(=O)N4C)cc2)CC1 | % | 100 |
| COc1cc(N2CCN(C)CC2)ccc1Nc1ncc2c(n1)N(C)c1ccccc1N(C)C2=O | % | 100 |
| COc1cc(N2CCC(O)CC2)ccc1Nc1ncc2c(n1)N1CCc3cccc(c31)C(=O)N2C | % | 74 |
| O=C1NC(=O)/C(=C/c2c[nH]c(=O)c(-c3ccc(N4CCNCC4)nc3)c2)S1 | % | 82 |

In the following, a different compound is considered.
May I ask what kinase still bound, per cent of control has been recorded for CN1C(=O)c2ccccc2N(C)c2nc(Nc3ccc(N4CCC(O)CC4)cc3)ncc21 ? 88

---

Tested on: ABL1 (human), P00519 [Q252H]
Experiment: KINOMEscan competition binding
Details: compound 10.0 µM
Recorded metric: kinase still bound, per cent of control (%)
Write the answer as a number in %, unit excluded.

Below: 3 molecules and their reported kinase still bound, per cent of control.
| Structure smiles | Assay target | kinase still bound, per cent of control / % |
| --- | --- | --- |
| CS(=O)(=O)Nc1ccc(-c2ncc(/C=C3\SC(=N)NC3=O)s2)cc1 | ABL1 (human), P00519 [Q252H] | 28 |
| COc1cc(N2CCN(C)CC2)ccc1Nc1ncc2c(n1)N(C)c1ccccc1N(C)C2=O | ABL1 (human), P00519 [Q252H] | 100 |
| CN1C(=O)c2ccccc2N(C)c2nc(NS(=O)(=O)c3ccc(N)cc3)ncc21 | ABL1 (human), P00519 [Q252H] | 82 |

Value wanted: kinase still bound, per cent of control (ABL1 (human), P00519 [Q252H]) of entry COc1cc(N2CCC(O)CC2)ccc1Nc1ncc2c(n1)N1CCc3cccc(c31)C(=O)N2C 100

What kinase still bound, per cent of control appears in the records for this molecule with ABL1 (human), P00519 [Q252H]? COc1cc(N2CCN(C)CC2)ccc1Nc1ncc2c(n1)N(C)c1sccc1C(=O)N2C 90

Give ABL1 (human), P00519 [Q252H] kinase still bound, per cent of control for COc1cc(N2CCN(C)CC2)ccc1Nc1ncc2c(n1)Nc1ccccc1NC2=O 14

Please tell me: kinase still bound, per cent of control of O=C1NC(=O)/C(=C/c2c[nH]c(=O)c(-c3ccc(N4CCNCC4)nc3)c2)S1 , system ABL1 (human), P00519 [Q252H]? 53

Field: kinase still bound, per cent of control (ABL1 (human), P00519 [Q252H]). Entry: CN1C(=O)c2ccccc2N(C)c2nc(Nc3ccc(N4CCC(O)CC4)cc3)ncc21 2.1

Please provide the recorded kinase still bound, per cent of control for CN1CCN(c2ccc(C(=O)Nc3ncc4c(n3)N(C)c3ccccc3C(=O)N4C)cc2)CC1 , tested on ABL1 (human), P00519 [Q252H]. 100

---

Target: NUAK1 (human) (UniProt O60285)
Sequence (O60285 whole entry, looked up): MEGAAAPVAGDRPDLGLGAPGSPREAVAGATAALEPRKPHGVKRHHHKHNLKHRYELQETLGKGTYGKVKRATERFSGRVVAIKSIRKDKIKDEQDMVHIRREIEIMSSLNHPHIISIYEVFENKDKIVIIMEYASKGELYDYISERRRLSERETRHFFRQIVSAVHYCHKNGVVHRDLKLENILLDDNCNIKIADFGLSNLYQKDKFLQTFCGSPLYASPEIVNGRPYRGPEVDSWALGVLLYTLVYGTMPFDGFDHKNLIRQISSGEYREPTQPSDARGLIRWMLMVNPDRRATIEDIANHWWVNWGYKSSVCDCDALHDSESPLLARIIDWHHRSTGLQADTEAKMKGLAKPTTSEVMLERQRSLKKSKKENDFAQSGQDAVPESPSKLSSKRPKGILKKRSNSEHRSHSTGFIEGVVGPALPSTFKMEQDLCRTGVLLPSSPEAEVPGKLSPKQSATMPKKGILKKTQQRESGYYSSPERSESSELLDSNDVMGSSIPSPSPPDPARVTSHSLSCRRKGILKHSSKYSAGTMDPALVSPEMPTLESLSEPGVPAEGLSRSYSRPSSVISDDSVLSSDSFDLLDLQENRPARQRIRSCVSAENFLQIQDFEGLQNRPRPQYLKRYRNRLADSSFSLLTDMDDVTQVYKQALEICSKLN
Experiment: KINOMEscan competition binding
Conditions: compound 10.0 µM
Kindly apply the following: YES if kinase still bound, per cent of control is less than 60%, NO in every other case.

Please review the following examples before continuing.
| Structure smiles | Class name |
| --- | --- |
| CN1C(=O)c2ccccc2N(C)c2nc(NS(=O)(=O)c3ccc(N)cc3)ncc21 | NO |
| O=C1NC(=O)/C(=C/c2c[nH]c(=O)c(-c3ccc(N4CCNCC4)nc3)c2)S1 | NO |
| CN1CCN(c2ccc(C(=O)Nc3ncc4c(n3)N(C)c3ccccc3C(=O)N4C)cc2)CC1 | NO |
| COc1cc(N2CCN(C)CC2)ccc1Nc1ncc2c(n1)N(C)c1ccccc1N(C)C2=O | NO |
| N=C1NC(=O)/C(=C/c2ccc(-c3csc4ccccc34)o2)S1 | YES |

hey, is kinase still bound, per cent of control for COc1cc(N2CCN(C)CC2)ccc1Nc1ncc2c(n1)N(C)c1sccc1C(=O)N2C lower than 60% or not? YES

Confirm or reject: kinase still bound, per cent of control of COc1cc(N2CCN(C)CC2)ccc1Nc1ncc2c(n1)N(C)c1ccccc1C(=O)N2C lies strictly below 60% YES

Report whether reported kinase still bound, per cent of control is lower than 60% (strictly) for COc1cc(N2CCC(O)CC2)ccc1Nc1ncc2c(n1)N1CCc3cccc(c31)C(=O)N2C NO

Could you please tell me whether kinase still bound, per cent of control recorded for COc1cc(N2CCN(C)CC2)ccc1Nc1ncc2c(n1)N(C)c1ccccc1C(=O)N2 is less than 60%? YES

Please check: kinase still bound, per cent of control for COc1cc(N2CCC(O)CC2)ccc1Nc1ncc2c(n1)N(C)c1ccccc1C(=O)N2C , strictly under 60% or not? YES

Strictly below 60%: is that where kinase still bound, per cent of control of COc1cc(N2CCN(C)CC2)ccc1Nc1ncc2c(n1)Nc1ccccc1NC2=O sits? NO

Does the reported kinase still bound, per cent of control of CN1C(=O)c2ccccc2N(C)c2nc(Nc3ccc(N4CCC(O)CC4)cc3)ncc21 stay below 60%? YES

Just wondering, is kinase still bound, per cent of control of CN1C(=O)c2ccccc2N(C)c2nc(Nc3ccc(N4CCC(O)CC4)cn3)ncc21 below 60%? YES
